# TEST_SYSTEM: M1 muscarinic receptors expressed in A9 L cells (Homo sapiens)
# CONDITION: read-out: PI metabolism EC50; full dose-response curves; mean ± s.e.m.
PROPERTY_MEASURED: EC50 (nM)
Answer with a number only, understood to be in nM.

Example cases with answers are listed next.
* CN1CCC=C(c2nsnc2OCCCCCCCCCCCCOc2nsnc2C2=CCCN(C)C2)C1 [(CH2)12] | 340
* CN1CCC=C(c2nsnc2OCCOCCOCCOCCOc2nsnc2C2=CCCN(C)C2)C1 [(CH2)4O3] | 8.5

Provide the documented EC50 with M1 muscarinic receptors expressed in A9 L cells (Homo sapiens) as the system for CN1CCC=C(c2nsnc2OCCCCCCCCCOc2nsnc2C2=CCCN(C)C2)C1 [(CH2)9] 720

====

# TEST_SYSTEM: M1 muscarinic receptors (Homo sapiens, UniProt P11229)
Catalogue of Ki readings, one per entry.
Answer with a number only, understood to be in nM.

Provide the documented Ki with M1 muscarinic receptors (Homo sapiens, UniProt P11229) as the system for CN1CCC=C(c2nsnc2OCCOCCOCCOCCOc2nsnc2C2=CCCN(C)C2)C1 [(CH2)4O3] 0.12

Item: CN1CCC=C(c2nsnc2OCCCCCCOc2nsnc2C2=CCCN(C)C2)C1 [(CH2)6] 0.61

Item: CN1CCC=C(c2nsnc2OCCCCCCCCOc2nsnc2C2=CCCN(C)C2)C1 [(CH2)8] 0.19

====

# TEST_SYSTEM: M1 muscarinic receptors expressed in A9 L cells (Homo sapiens, UniProt P11229)
# Sequence (P11229 whole entry): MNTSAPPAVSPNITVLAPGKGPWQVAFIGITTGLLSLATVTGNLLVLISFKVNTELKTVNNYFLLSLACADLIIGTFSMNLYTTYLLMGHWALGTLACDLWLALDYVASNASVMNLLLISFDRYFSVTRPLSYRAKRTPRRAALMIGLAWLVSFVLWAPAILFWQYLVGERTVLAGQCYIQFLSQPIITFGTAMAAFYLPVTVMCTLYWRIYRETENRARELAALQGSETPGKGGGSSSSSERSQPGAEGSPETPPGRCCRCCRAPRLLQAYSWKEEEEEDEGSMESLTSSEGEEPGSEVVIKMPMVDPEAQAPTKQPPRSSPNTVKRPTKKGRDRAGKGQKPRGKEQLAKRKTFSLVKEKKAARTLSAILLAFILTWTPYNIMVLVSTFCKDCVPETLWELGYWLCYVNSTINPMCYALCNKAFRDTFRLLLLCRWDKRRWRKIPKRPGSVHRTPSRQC
# CONDITION: percentage stimulation above basal levels at 100 μM relative to the carbachol response (100%); mean ± s.e.m., two to five assays
Lab note - cut at 30% for PI metabolism (at 100 μM): label 1 if strictly below, label 0 if not.

Solved cases below.
- CN1CCC=C(c2nsnc2OCCCCCCCCCOc2nsnc2C2=CCCN(C)C2)C1: label 1
- CN1CCC=C(c2nsnc2OCCCCCCCCCCCCOc2nsnc2C2=CCCN(C)C2)C1: label 0
- CN1CCC=C(c2nsnc2OCCCCCCCCOc2nsnc2C2=CCCN(C)C2)C1: label 1
- CN1CCC=C(c2nsnc2OCCCCCCOc2nsnc2C2=CCCN(C)C2)C1: label 1

Proceed to the following item.
Threshold test, PI metabolism (at 100 μM) < 30%: CN1CCC=C(c2nsnc2OCCCCCCCCCCOc2nsnc2C2=CCCN(C)C2)C1 label 0
